// data source = PubChem BioAssay AID1963828

tested on: 991263-137-R1-J2-PDC complex spheroid viability; assay: Anticancer human tumor 991263-137-R1-J2-PDC patient-derived colon adenocarcinoma cell line growth inhibition [POLQ]; conditions: second compound 10 µM; first compound 0.1 µM; stronger effect = lower value;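 note: spheroids exposed to compounds for 7 days before readout; 100% = DMSO vehicle control viability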
QUANTITY_MEASURED: viability, T/C (%)
// note: answer is a bare numeric in %

Reference set (5 entries):
{"columns": ["COMPOUND", "viability, T/C [%]"],
 "data": [
  ["O=C(Nc1ccc(O)c(NS(=O)(=O)c2ccc(F)cc2)c1)c1ccc(-c2ccccc2)cc1 + Cc1cccc(N(C)C(=O)C2C(O)CCN2c2nc(C)cc(C(F)(F)F)c2C#N)c1", 95.9],
  ["CCc1cc2c(N3CCc4c(cc(Cn5ccnc5)cc4-c4cn(C)nc4C(F)(F)F)C3=O)cc(C)nc2c(OC)n1 + Cc1cccc(N(C)C(=O)C2C(O)CCN2c2nc(C)cc(C(F)(F)F)c2C#N)c1", 105],
  ["O=C(Nc1ccc(O)c(NS(=O)(=O)c2ccc(F)cc2)c1)c1ccc(-c2ccccc2)cc1 + Nc1ccc(C#CCN(C(=O)Cc2ncc(C(F)(F)F)cc2C(F)(F)F)c2ccc(F)cc2)nn1", 110],
  ["COc1cccc(OCCCN)c1-c1cc(Nc2cnc(C#N)cn2)n[nH]1 + Nc1ccc(C#CCN(C(=O)Cc2ncc(C(F)(F)F)cc2C(F)(F)F)c2ccc(F)cc2)nn1", 46.8],
  ["C=CCn1c(=O)c2cnc(Nc3ccc(N4CCN(C)CC4)cc3)nc2n1-c1cccc(C(C)(C)O)n1 + Nc1ccc(C#CCN(C(=O)Cc2ncc(C(F)(F)F)cc2C(F)(F)F)c2ccc(F)cc2)nn1", 99.4]
]}

Now for another entry.
Quote viability, T/C reported for Cn1ncnc1[C@H]1c2n[nH]c(=O)c3cc(F)cc(c23)N[C@@H]1c1ccc(F)cc1 + COC1C(OC(N)=O)C(O)C(Oc2ccc3c(O)c(NC(=O)c4ccc(O)c(CC=C(C)C)c4)c(=O)oc3c2C)OC1(C)C please.
95.8
